B1: Pre-mRNA-processing factor 40 homolog B, residues 274 to 332; numbered along this chain, Q6NWY9 (parent)
chain: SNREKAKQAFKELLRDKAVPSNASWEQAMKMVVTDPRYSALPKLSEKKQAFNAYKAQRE

- Variants of: B1
- experimentNotes: abundance fitness (aPCA) (normalised: wild type 0, dead -1); higher = more abundant; growth selection in yeast, the domain comes from the species named
- measurementConditions: Homo sapiens
Collected abundance fitness values appear next to each entry.
Reply with the value as a number alone.

N2R; -0.324
L14T; -0.547
K5W; -0.553
Q8E; 0.003

// query abundance fitness value for entry A50G
-0.462

Moving on to R58P
-0.018

Moving on to A9N
-0.279

Moving on to R58I
-0.648
